// provenance: PubChem BioAssay (EPA / NIEHS)

# Read-out: Interleukin-1 alpha (IL1a), IL1A (gene 3552)
# protocol_notes: BSK_BE3C_IL1a: BioMAP Diversity Plus: BE3C Assay for Interleukin-1 alpha (IL1a) Biomarker Activity (AID 2283016)
# assay_setup: primary human bronchial epithelial cells; actives raise or lower the signal
# Description: BSK_BE3C is a cell-based, multiplexed-readout assay that uses bronchial epithelial cell, a human lung primary cell, with measurements taken at 24 hours after chemical dosing in a 96-well plate.BSK_BE3C_IL1a is an assay component measured in the BSK_BE3C assay. It measures IL-1a antibody related to regulation of gene expression using ELISA technology.Data from the assay component BSK_BE3C_IL1a was analyzed into 1 assay endpoint. […]
The source made the active and inactive calls. The calls were made as follows: active = hit-call score of the fitted dose curve at least 0.9, where 1 is the maximum; inactive = score below 0.9.
Answer with one of the outcomes active, inactive

CCCCC(CC)COC(=O)CCCCC(=O)OCc1ccccc1 (stereo unspecified) | inactive
CCCOc1sc(C(=O)N2CCC(c3cc(CN)ccc3F)CC2)c(C)c1Br | active
CC(=O)CC(C)(C)O | inactive
OC1CCCCC1 | inactive
NC(=O)N(O)[C@@H]1C=C[C@H](Oc2cccc(Oc3ccc(F)cc3)c2)C1 | inactive

Here is the next item to consider.
input: Lab log entry: O=C(OCCOCCOC(=O)c1ccccc1)c1ccccc1 — outcome as called in the assay?
output: inactive

###

# protocol_notes: BSK_LPS_PGE2: BioMAP Diversity Plus: LPS Assay for Prostaglandin E2 (PGE2) Biomarker Activity (AID 2283082)
# assay_setup: primary human HUVEC with PBMC; actives raise or lower the signal
Activity calls are given as the source filed them. The calls were made as follows: active = hit-call score of the fitted dose curve at least 0.9, where 1 is the maximum; inactive = score below 0.9.
Answer with one of the outcomes label 1 for active, label 0 for inactive

These recorded examples may help you get a feel for the data.
CC(=O)CC(C)(C)O | label 0
CCCCCCCCCCCCCCCS(=O)(=O)Oc1ccccc1 | label 0

input: Lab log entry: CCCCC(CC)COC(=O)CCCCC(=O)OCC(CC)CCCC (stereo not given) — outcome as called in the assay?
output: label 0

input: Lab log entry: CCCOc1sc(C(=O)N2CCC(c3cc(CN)ccc3F)CC2)c(C)c1Br — outcome as called in the assay?
output: label 1

input: Lab log entry: CN1CCC[C@H]1c1cccnc1 — outcome as called in the assay?
output: label 0

input: Lab log entry: CCCOC(=O)c1ccc(O)cc1 — outcome as called in the assay?
output: label 1

input: Lab log entry: CC(C)(C)c1cccc(C(C)(C)C)c1O — outcome as called in the assay?
output: label 0

input: Lab log entry: CCCCOCCO — outcome as called in the assay?
output: label 0

input: Lab log entry: CCCCCCCCOC(=O)CCCCCCCCC(=O)OCCCCCCCC — outcome as called in the assay?
output: label 0

input: Lab log entry: OC1CCCCC1 — outcome as called in the assay?
output: label 0

###

# Read-out: Fatty acid synthase (Homo sapiens) (UniProt P49327)
# Sequence (P49327 whole entry, looked up): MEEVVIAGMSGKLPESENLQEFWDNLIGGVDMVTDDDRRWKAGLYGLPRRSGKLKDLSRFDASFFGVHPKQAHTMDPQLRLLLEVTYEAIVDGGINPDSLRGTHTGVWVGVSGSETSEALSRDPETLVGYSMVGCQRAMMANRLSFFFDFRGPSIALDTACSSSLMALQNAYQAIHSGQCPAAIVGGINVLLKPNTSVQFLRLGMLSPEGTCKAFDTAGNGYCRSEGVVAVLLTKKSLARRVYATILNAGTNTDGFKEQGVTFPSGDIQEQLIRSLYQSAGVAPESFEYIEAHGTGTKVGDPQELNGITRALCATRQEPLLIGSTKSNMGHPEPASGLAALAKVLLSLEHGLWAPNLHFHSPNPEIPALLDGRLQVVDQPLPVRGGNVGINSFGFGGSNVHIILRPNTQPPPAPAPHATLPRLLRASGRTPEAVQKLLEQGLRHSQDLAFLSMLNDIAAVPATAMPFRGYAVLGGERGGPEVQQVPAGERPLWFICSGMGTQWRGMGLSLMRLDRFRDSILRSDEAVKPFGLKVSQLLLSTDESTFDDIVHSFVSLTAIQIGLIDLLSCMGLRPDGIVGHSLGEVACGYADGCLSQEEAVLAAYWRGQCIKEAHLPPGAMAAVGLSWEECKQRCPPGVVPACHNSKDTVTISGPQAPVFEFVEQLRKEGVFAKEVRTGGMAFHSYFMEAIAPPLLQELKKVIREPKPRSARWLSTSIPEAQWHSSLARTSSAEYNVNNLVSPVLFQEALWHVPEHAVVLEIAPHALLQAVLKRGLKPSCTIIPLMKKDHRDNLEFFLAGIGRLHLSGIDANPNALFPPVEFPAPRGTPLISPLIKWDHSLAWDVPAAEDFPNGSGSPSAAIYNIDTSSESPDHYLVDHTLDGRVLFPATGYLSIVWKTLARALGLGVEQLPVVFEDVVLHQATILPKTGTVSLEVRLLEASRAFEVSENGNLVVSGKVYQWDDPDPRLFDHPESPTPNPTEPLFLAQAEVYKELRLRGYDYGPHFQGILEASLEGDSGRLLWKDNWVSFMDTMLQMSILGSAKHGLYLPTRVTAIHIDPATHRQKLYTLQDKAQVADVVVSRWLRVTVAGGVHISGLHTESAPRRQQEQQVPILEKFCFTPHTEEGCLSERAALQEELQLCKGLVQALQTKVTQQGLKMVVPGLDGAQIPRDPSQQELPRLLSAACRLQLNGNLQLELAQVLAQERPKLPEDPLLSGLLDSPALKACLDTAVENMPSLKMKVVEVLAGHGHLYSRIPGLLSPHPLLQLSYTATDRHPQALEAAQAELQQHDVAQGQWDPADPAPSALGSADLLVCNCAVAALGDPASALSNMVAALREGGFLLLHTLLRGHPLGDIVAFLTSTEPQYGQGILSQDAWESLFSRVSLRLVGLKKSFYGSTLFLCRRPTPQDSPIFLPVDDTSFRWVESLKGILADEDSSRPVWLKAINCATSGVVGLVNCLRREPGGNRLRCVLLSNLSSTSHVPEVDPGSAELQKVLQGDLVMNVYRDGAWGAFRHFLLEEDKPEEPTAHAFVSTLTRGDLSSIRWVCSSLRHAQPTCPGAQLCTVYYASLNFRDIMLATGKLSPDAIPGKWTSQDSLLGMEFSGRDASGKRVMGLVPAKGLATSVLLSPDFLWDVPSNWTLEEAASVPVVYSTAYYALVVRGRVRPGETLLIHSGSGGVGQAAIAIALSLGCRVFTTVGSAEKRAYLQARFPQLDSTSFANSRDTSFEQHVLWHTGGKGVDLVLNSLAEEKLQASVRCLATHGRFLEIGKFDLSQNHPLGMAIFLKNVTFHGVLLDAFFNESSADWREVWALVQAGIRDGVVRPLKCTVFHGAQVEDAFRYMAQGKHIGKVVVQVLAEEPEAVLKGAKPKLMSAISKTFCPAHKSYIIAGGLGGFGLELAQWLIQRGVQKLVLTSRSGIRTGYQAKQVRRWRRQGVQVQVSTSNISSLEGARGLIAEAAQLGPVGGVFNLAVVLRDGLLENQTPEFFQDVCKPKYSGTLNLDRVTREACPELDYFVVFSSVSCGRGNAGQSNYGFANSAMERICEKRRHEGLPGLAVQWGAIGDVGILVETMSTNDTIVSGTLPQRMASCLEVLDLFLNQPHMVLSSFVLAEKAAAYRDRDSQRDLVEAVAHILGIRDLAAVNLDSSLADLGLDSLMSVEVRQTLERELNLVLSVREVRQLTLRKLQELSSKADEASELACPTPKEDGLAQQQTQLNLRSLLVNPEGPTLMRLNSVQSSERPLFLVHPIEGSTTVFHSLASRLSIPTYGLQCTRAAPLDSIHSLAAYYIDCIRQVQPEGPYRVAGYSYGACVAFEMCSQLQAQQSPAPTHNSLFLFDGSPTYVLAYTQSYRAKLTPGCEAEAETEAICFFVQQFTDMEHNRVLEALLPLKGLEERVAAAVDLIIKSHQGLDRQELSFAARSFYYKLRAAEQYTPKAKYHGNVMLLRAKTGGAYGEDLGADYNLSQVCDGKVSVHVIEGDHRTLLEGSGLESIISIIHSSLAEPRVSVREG
# protocol_notes: LTEA_HepaRG_FASN: Life Technologies and Expression Analysis (LTEA) Assay for Fatty Acid Synthase (FASN) using HepaRG (AID 2283448)
# assay_setup: mRNA level, 48 h; actives raise or lower the signal
Calls of active or inactive are those of the source. Rule for the calls: active = hit-call score of the fitted dose curve at least 0.9, where 1 is the maximum; inactive = score below 0.9.
Answer with one of the outcomes 1 = active, 0 = inactive

These recorded examples may help you get a feel for the data.
CC(C)(C)c1cc(C(C)(C)C)c(O)c(C(C)(C)C)c1 | 1
CC#C[C@]1(O)CC[C@H]2[C@@H]3CCC4=CC(=O)CCC4=C3[C@@H](c3ccc(N(C)C)cc3)C[C@@]21C | 1
CC(=O)CC(C)(C)O | 0
CCc1ccc(CCOc2ccc(CC3SC(=O)NC3=O)cc2)nc1 (configuration not stated) | 0

input: Lab log entry: Cc1cc(C)c(O)c(C)c1 — outcome as called in the assay?
output: 0

input: Lab log entry: CC[C@H](C)[C@@H](C(=O)O)n1sc2ccccc2c1=O — outcome as called in the assay?
output: 0

input: Lab log entry: CCOC(=O)CC(O)(CC(=O)OCC)C(=O)OCC — outcome as called in the assay?
output: 0
